TEST DESCRIPTION: The drug is tested on Z-003 corresponding to pig gut metagenome with ENA study accession number: PRJEB37062 and ENA sample accession number: ERS12561803 for biotransformation under anaerobic condition. The drug concentrations were measured over 9 timepoints collected between 0 and 24 hours of incubation by liquid-chromatography-coupled mass spectrometry (LC–MS); also: call rule not given here
EXPERIMENTAL CONTEXT: 2 µM
REPORTED PROPERTY: Bacterial Biotransformation

COMPOUND: CC(C)c1c(CN(C)C(C)Cc2ccccc2)n(C)n(-c2ccccc2)c1=O (stereo not drawn) [FAMPROFAZONE]
REPORTED PROPERTY: Bacterial Biotransformation
DATA VALUE: Compound metabolized
--
COMPOUND: O=C1CN2Cc3c(ccc(Cl)c3Cl)N=C2N1 [ANAGRELIDE]
REPORTED PROPERTY: Bacterial Biotransformation
DATA VALUE: Compound NOT metabolized
--
COMPOUND: C#C[C@]1(OC(C)=O)CC[C@H]2[C@@H]3CCC4=CC(=O)CC[C@@H]4[C@H]3CC[C@@]21C [NORETHINDRONE ACETATE]
REPORTED PROPERTY: Bacterial Biotransformation
DATA VALUE: Compound metabolized
--
COMPOUND: C[C@]12C=CC(=O)C=C1CC[C@@H]1[C@@H]2C(=O)C[C@@]2(C)[C@H]1CC[C@]2(O)C(=O)CO [PREDNISONE]
REPORTED PROPERTY: Bacterial Biotransformation
DATA VALUE: Compound metabolized
--
COMPOUND: CNNCc1ccc(C(=O)NC(C)C)cc1 [PROCARBAZINE]
REPORTED PROPERTY: Bacterial Biotransformation
DATA VALUE: Compound NOT metabolized

Provide reported Bacterial Biotransformation for each item, in the same order as listed.
1. COc1cc(C(=O)NCc2ccc(OCCN(C)C)cc2)cc(OC)c1OC [TRIMETHOBENZAMIDE]
2. N#Cc1ccc2[nH]cc(CCCCN3CCN(c4ccc5oc(C(N)=O)cc5c4)CC3)c2c1 [VILAZODONE]
3. CN1[C@@H]2CC[C@H]1C[C@@H](OC(=O)c1c[nH]c3ccccc13)C2 [TROPISETRON]

Out:
Compound NOT metabolized
Compound metabolized
Compound NOT metabolized
